- Read-out: Monocyte Chemoattractant Protein-1 (MCP1), CCL2 (gene 6347)
- ASSAY_INFO: BSK_CASM3C_MCP1: BioMAP Diversity Plus: CASM3C Assay for Monocyte Chemoattractant Protein-1 (MCP1) Biomarker Activity (AID 2283046);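 also: MCP-1 level quantified by ELISA 24 h after dosing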
- SETUP_CONDITIONS: primary human coronary artery smooth muscle cells; actives raise or lower the signal
Calls of active or inactive are those of the source. The calls were made as follows: active = hit-call score of the fitted dose curve at least 0.9, where 1 is the maximum; inactive = score below 0.9.
Parameter call: string, one of True for active, False for inactive

Example entries and their recorded answers appear below.
molecule=NCCO assigned_label=False
molecule=Oc1ccc2c(c1)OC[C@@H](N1CCC(O)(c3ccc(F)cc3)CC1)[C@H]2O assigned_label=False
molecule=CCCCc1ccc2c(n1)[C@@H](c1ccc(OC)cc1C[C@H](C)C(=O)O)[C@H](C(=O)O)[C@H]2c1ccc2c(c1)OCO2 assigned_label=False
molecule=CC(=O)Oc1ccccc1C(=O)O assigned_label=False

*Q* Name the outcome recorded for `CC(=O)OC/C=C(\C)CCC=C(C)C` in the assay.
*A* False

*Q* Name the outcome recorded for `C1CCC(SSC2CCCCC2)CC1` in the assay.
*A* True

*Q* Name the outcome recorded for `C=CCOC(=O)c1ccccc1C(=O)OCC=C` in the assay.
*A* False

*Q* Name the outcome recorded for `O=c1c(O)c(-c2ccc(O)c(O)c2)oc2cc(O)cc(O)c12` in the assay.
*A* True

*Q* Name the outcome recorded for `COc1cc(S(=O)(=O)O)c(C)cc1N=Nc1c(O)ccc2cc(S(=O)(=O)O)ccc12` in the assay.
*A* False

*Q* Name the outcome recorded for `COC(=O)c1ccc(O)cc1` in the assay.
*A* False
